Assay: OD615 S. cerevisiae growth inhibition, permissive medium, pilot counter-assay, permissive growth control for S. cerevisiae lifespan shortening project (AID 705)
Details: OD615, 24 h, at 10 µM, active compounds read high
recorded-metric: growth inhibition (%)

> print(dat)
                                    compound  test.result
 1  Cc1nnc(NC(=O)CSc2nc3c(c(=O)n2CCc2ccccc2)SC(C)C3)s1 (configuration not stated)        -9.82
 2  O=C(c1ccc2nc(N3CCOCC3)sc2c1)N1CCN(C(=O)c2ccco2)CC1        -4.29
 3  NC(=O)CC1NC(=O)c2ccccc21 (configuration not stated)        -11.7
 4  Cc1ccc2c(c1)NCC(C(=O)NC1CCC(C)CC1)O2 (configuration not stated)        -10.3
 5          CCOC(=O)CCc1c(C)n(CC)c2ncnn2c1=O        -3.41
 6           Cn1cnnc1SCC(=O)c1ccc2c(c1)CCCC2        -1.79
 7  O=C(CCCn1c(=O)[nH]c2ccccc2c1=O)N1CCN(c2ccccn2)CC1        -3.37
 8  CCCCCn1c(=N)n(CC(O)COc2ccccc2OC)c2ccccc21 (configuration not stated)        -4.93
 9  C=CCNC(=O)C1CCN(S(=O)(=O)c2ccc(Br)cc2)CC1        -8.89
10  CCOc1ccc(C2N(c3ccc(Cl)cc3)C(=O)C3CCCN32)cc1OC (configuration not stated)        -2.75
11  O=C(NCc1ccccn1)C1CCN(S(=O)(=O)N2CCCC2)CC1        -5.04
12  CC(=O)c1cccc(NC(=O)c2c(F)c(F)c(F)c(F)c2F)c1        -4.19
13        Cc1ccccc1NC(=O)CCn1c(=O)oc2ccccc21        -3.42
14    CCCCCSc1nc2c(c(=O)[nH]c(=O)n2C)n1C(C)C        -8.31
15  Cc1ccc(C2/C(=C(/O)c3ccccc3)C(=O)C(=O)N2CCN2CCOCC2)o1 (configuration not stated)         8.83
16  CN1CCN(C(=O)c2ccc3c(c2)N(Cc2ccc(Cl)cc2)C(=O)c2ccccc2S3=O)CC1 (configuration not stated)        -0.89
17  O=C(CN1C(=O)c2ccccc2C1=O)Nc1cccc2cccnc12        -14.6
18             CC(=O)Nc1ccc(OC/C=C(\C)Cl)cc1        -16.6
19  CCOC(=O)c1[nH]c(C)c(C(=O)NC(C)CC)c1C (configuration not stated)         2.05
20  COc1ccc(CN2CCNC(=O)C2CC(=O)O)c(OC)c1 (configuration not stated)        -18.7
21       CC1CCN(C(=O)c2cc(-c3ccccc3O)on2)CC1        -10.2
22  COc1ccccc1NC(=O)C1=C(C)NC(=O)NC1c1ccccc1F (configuration not stated)        -7.88
23  CCC(=O)NC(c1ccccc1)c1nc2ccccc2[nH]1 (configuration not stated)        -12.9
24  COc1cccc(Cn2nnc(C(=O)NCc3ccc(F)cc3)c2N)c1        -5.24
25  Cc1cc(C)c2c(n1)SCC(=O)N2CC(=O)NCCC1=CCCCC1       -0.205
26        c1ccc(Cn2nnc3c(N4CCOCC4)ncnc32)cc1        -15.8
27       Cc1ccn2cc(CCNC(=O)c3ccc(Br)o3)nc2c1        -10.6
28  CCOC(=O)N1CCN(C(=O)CSc2nnc(-c3ccc(C)c(C)c3)o2)CC1        -1.67
29  COc1ccc(-n2nc(C(=O)N3CCC(C#N)CC3)c3c4ccccc4n(C)c3c2=O)cc1        -14.9
30  Cn1c(=O)c2c(nc(-n3ccnc3)n2Cc2ccc(Cl)cc2Cl)n(C)c1=O        -10.2
31           CCc1nnc(NC(=O)c2ccc(OC)cc2OC)s1         16.6
32  N#CCCN1CCN(S(=O)(=O)c2ccc(S(=O)(=O)NC3CC3)cc2)CC1        -10.4
33  Cn1c(=O)oc2cc(S(=O)(=O)NCCCN3CCCC3=O)ccc21         -7.4
34  Cc1ccc(N(C(C)C(=O)O)S(=O)(=O)c2c(C)[nH]c(=O)[nH]c2=O)cc1 (configuration not stated)         1.15
35        CCOC(=O)N1CCN(c2ncnc3nc[nH]c23)CC1         -8.7
36                   Nc1nnc(N2CCc3ccccc32)s1        -1.08
37              Cc1nc2scc(-c3cccs3)c2c(=O)o1          -24
38                 COc1ccc(CN(C)C2CCCCC2)cc1        -16.4
39        CN1CCN(S(=O)(=O)c2ccc3ccccc3c2)CC1        -0.14
40     CCOC(=O)N1CCC(C(=O)Nc2ccc(OCC)cc2)CC1         5.44
41       COc1ccc(OCCSc2nnc(-c3ccccc3)n2N)cc1        -2.49
42  Cn1c(=O)c2c(nc(CN3CCCCC3)n2Cc2c(F)cccc2Cl)n(C)c1=O        -2.88
43     N#Cc1c(NC(=O)c2cc(C3CC3)on2)sc2c1CCC2        -1.24
44      Cn1c(=O)oc2cc(S(=O)(=O)N3CCCC3)ccc21         4.02
45  CCCOc1cccc(C(=O)Nc2cccc(NC(=O)c3ccco3)c2)c1        -11.2
46  CC(C)CCn1c(SCC(N)=O)nc2c1c(=O)n(C)c(=O)n2C        -11.8
47  CCOC(=O)c1ccc2c(c1)NC(=O)C(N1CCN(c3ccc(OC)cc3)CC1)S2 (configuration not stated)        0.455

###

Assay: inhibitors of the yeast RAM network, pilot screen, dse1pr::URA3 reporter, 5-FOA selection (AID 869);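 note: 0% = DMSO wells with no growth and 100% = 10 µM 1-NA-PP1 with full growth; RAM network block rescues cells from 5-FOA so hits raise OD615 growth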
Settings: S. cerevisiae dse1pr::URA3 5-FOA growth, OD615, 2 d; at 10 µM; active compounds read high; strain carries analog-sensitive mutant Cbk1 kinase
recorded-metric: inhibition (%)

> print(dat)
                                    compound  recorded.metric  test.result
 1          COc1ccc(OCC(=O)N(C)Cc2ccccc2)cc1       inhibition         0.72
 2  Cc1noc(NS(=O)(=O)c2ccc(NC(=O)c3cnc4scc(C)n4c3=O)cc2)c1C       inhibition         2.61
 3  Cc1ccc(C2CC(c3cccc(Br)c3)n3nc(N)nc3N2)cc1 (stereo unspecified)       inhibition         1.82
 4  CCN1CCc2c(sc(NC(=O)c3ccc(S(=O)(=O)N4CCOCC4)cc3)c2C(N)=O)C1       inhibition         1.45
 5  COc1ccc(NC(=O)CN(c2cc(C)cc(C)c2)S(=O)(=O)c2c(C)noc2C)cc1       inhibition         0.19
 6  Cc1cccc(NC(=O)CC2SC(=NC3CCCCC3)NC2=O)c1 (stereo unspecified)       inhibition        0.415
 7  COc1ccc(NC(=O)CCS(=O)(=O)c2cccc3nonc23)c(OC)c1       inhibition         0.51
 8   c1ccc(N2CCN(c3ncnc4c3oc3ccccc34)CC2)cc1       inhibition        -0.03
 9  COc1cccc(C2NC(=O)NC(C)=C2C(=O)OCCSC)c1OC (stereo unspecified)       inhibition         1.07
10  COc1ccc(Cl)cc1NC(=O)C1CCCO1 (stereo unspecified)       inhibition         1.42
11              O=C(NCc1ccccn1)Nc1cccc(Cl)c1       inhibition        0.095
12  COc1ccc(-c2ccc(=O)n(CC(=O)N3CCN(c4ccccc4OC)CC3)n2)cc1       inhibition         1.15
13  CN1C(=O)/C(=C2\SC(=S)N(C(CCC(=O)O)C(=O)O)C2=O)c2ccccc21 (stereo unspecified)       inhibition         1.11
14  COc1ccccc1S(=O)Cc1ccc(C(=O)NCc2ccccc2Cl)o1 (stereo unspecified)       inhibition         2.41
15  O=C(C1CCC(CNc2c(N3CCCCC3)c(=O)c2=O)CC1)N1CCCCC1 (stereo unspecified)       inhibition         1.09
16           CC(=O)NCc1nc2ccccc2n1Cc1ccccc1F       inhibition         3.39
17  COc1cccc(-c2nc(CS(=O)CC(=O)NCc3ccccc3)c(C)o2)c1 (stereo unspecified)       inhibition         1.11
18    O=C(CSC1=NS(=O)(=O)c2ccccc21)Nc1ccccc1       inhibition        -0.07
19        Cc1cc(Nc2cc(C(=O)O)ccc2C)n2ncnc2n1       inhibition         0.71
20           Cc1nc2cc(C(=O)O)ccc2n1-c1ccccc1       inhibition         1.99
21  COc1ccc(-c2nc(CS(=O)CC(=O)NCc3ccco3)c(C)o2)cc1 (stereo unspecified)       inhibition         1.88
22              Cc1cc(NC(=O)CSCCc2ccncc2)no1       inhibition        0.675
23  O=C(Cc1cc(=O)[nH]c(=O)[nH]1)N1CCN(C(=O)c2ccco2)CC1       inhibition         0.59
24             NC(=O)CSc1ncc(-c2ccccc2)[nH]1       inhibition        0.715
25         COc1ccc(CNC(=O)c2cc(C3CC3)on2)cc1       inhibition        -0.84
26      Cn1c(NC(=O)CCC2CCCCC2)cc(=O)n(C)c1=O       inhibition         0.52
27   O=C(CCCn1c(=O)oc2ccccc21)N1CCc2ccccc2C1       inhibition         1.48
28  COc1ccc(-n2ncc3c(N(C)C4CCCCC4)ncnc32)cc1       inhibition         1.76
29  COc1ccc(C(=O)NCC(c2cccnc2)N2CCN(c3ccc(F)cc3)CC2)cc1OC (stereo unspecified)       inhibition         1.82
30  COc1cccc(CNC(=O)CCS(=O)(=O)c2cccc3nonc23)c1       inhibition         1.75
31  O=C(CSc1cn(CCNC(=O)c2cccs2)c2ccccc12)NCC1CCCO1 (stereo unspecified)       inhibition         1.61
32  CCOC(=O)N1CCN(C(=O)C2CCCN(c3nc4ccc(OCC)cc4s3)C2)CC1 (stereo unspecified)       inhibition         0.33
33  CCOc1ccccc1N(CC(=O)Nc1ccccc1C(=O)O)S(C)(=O)=O       inhibition         0.11
34  O=C(C1CCCN(S(=O)(=O)c2cccc3cccnc23)C1)N1CCc2ccccc21 (stereo unspecified)       inhibition          1.5
35                      CCSc1nnc(NC(=O)CC)s1       inhibition         1.21
36  COc1ccccc1NC(=O)C1=C(C)NC(=O)NC1c1ccccc1F (stereo unspecified)       inhibition         1.82
37  CN(CC(=O)NCCC1=CCCCC1)S(=O)(=O)c1ccc2c(c1)c(=O)n(C)c(=O)n2C       inhibition         2.88
38  COc1ccc(-c2nnc(SCC(=O)NC(C)C)n2CC2CCCO2)cc1OC (stereo unspecified)       inhibition         1.69
39       OCCOCCn1c(-c2ccccc2)nc(=S)c2c1CCCC2       inhibition         0.73
40  O=C(O)C1C2C=CC(C2)C1C(=O)OCC1CCCO1 (stereo unspecified)       inhibition        0.865
41  c1ccc2c(c1)nc(NCC1CCCO1)c1nnnn12 (stereo unspecified)       inhibition         1.34
42                    COCCNC(=O)COc1ccccc1Cl       inhibition        0.815
43      Nc1ccccc1-c1nnc(SCc2ccccc2F)[nH]c1=O       inhibition        0.695
44  Cn1c(Cn2c(=O)sc3ccccc32)nnc1SCC(=O)NCc1ccc(F)cc1       inhibition          3.3
45  COc1ccc(OC)c(N(CC(=O)NC2CC2)S(=O)(=O)c2ccc(C)cc2)c1       inhibition         0.73
46  COc1ccc(N2CCN(CCCNS(=O)(=O)c3ccc4c(c3)oc(=O)n4C)CC2)cc1       inhibition         1.25

Data credit: PubChem BioAssay
